# CC50 per entry
assay: Cellular toxicity assay in Vero cells; format: cell-based; details: African green monkey, read-out: Cytotoxicity, CC50

Observe how each entry below is paired with its result.
CC(C)OC(=O)[C@H](C)NP(=O)(OC[C@H]1O[C@@H](n2ccc(N)nc2=O)C(Cl)(Cl)[C@@H]1O)Oc1ccccc1 (stereo partly drawn) [Compound 23]
< 1000 nM
CC(C)OC(=O)[C@H](C)NP(=O)(OC[C@H]1O[C@@H](n2ccc(=O)[nH]c2=O)C(Cl)(Cl)[C@@H]1O)Oc1ccccc1 (stereo partly drawn) [Compound 18]
> 100000 nM

Value of CC50 reported for the compound Nc1ccn([C@@H]2O[C@H](CO)[C@@H](O)C2(Cl)Cl)c(=O)n1 [Compound 22] is < 1000 nM
